// provenance: the supplement of paper PMC6555819

# System: LXRb homodimer (NR concentration 270 nM)
# MEASUREMENT_DESCRIPTION: PBM binding z-score (relative to random genomic background probes); higher = stronger binding; sequences stand for … in GC…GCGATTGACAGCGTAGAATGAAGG
Where PBM binding z-score equals or exceeds 0.4, the correct label is Met; where it does not, the label is Not met.

{"columns": ["MACROMOLECULE_SEQUENCE", "CLASS_LABEL"],
 "data": [
  ["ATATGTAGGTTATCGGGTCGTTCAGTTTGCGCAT", "Met"],
  ["ATCGAAAGGACGTGAGGTGAGTATACAGAAAGGC", "Not met"],
  ["CGTCAGAGTTCAACTAAGGTAACGTAAAGCACGC", "Met"],
  ["CAGCCTAGGTCAGGGACAGTATAGGAGGAACGTT", "Not met"],
  ["ATCTCTAGGTAACAAGTTCAGAGAAAGAGAGGAC", "Met"],
  ["GATACAGGGCCAAGGCCAGAGTACGCGTATTGAT", "Not met"],
  ["TTACCAAGGTGATAGGTCGTTGATGCACGCCTTG", "Not met"],
  ["CCTTACTGGTCACGAGGTTATAGCACGACGAGCG", "Met"],
  ["ATCTCTAGGTAACCAAGTTCAGTGACTGCCGAAC", "Met"],
  ["GCAGACAGGTGAAACGCAGGTAAGTCAGGGTGGC", "Not met"]
]}

###

# Tested on: RXRa homodimer (NR concentration 180 nM)
# MEASUREMENT_DESCRIPTION: PBM binding z-score (relative to random genomic background probes); higher = stronger binding; sequences stand for … in GC…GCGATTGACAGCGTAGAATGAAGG

{"columns": ["MACROMOLECULE_SEQUENCE", "PBM binding z-score"],
 "data": [
  ["ATCTCTCGGTAAAAGTTCAGTGAATCCCGAGGAT", 0.954],
  ["TGTCAAAGTTCAAATGTAACGTAAGTATCCACAC", 5.3],
  ["CATTACGGGTCACGAGGTTATAGCACGACGAGCG", 8.02],
  ["GCAGACAGGTGAAACGCAGGTAACTCAGGGTGGC", 0.519],
  ["TCGAGTAGGTAAGGGGCATTCAGAATGGCGTCGA", 0.0821],
  ["TCTTTTAGATCAGCAGGTTAAGAAAGCTGGCCAA", 0.581],
  ["GCGCGGAGGACAAGGTCAGAGCTTTGTCCGTAGA", 2.43],
  ["CGTCCAAGGTCATAGGAGGTCAGAGAAGACAGAT", 6.71],
  ["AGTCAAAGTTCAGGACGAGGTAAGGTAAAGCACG", 3.09],
  ["TCGAGAAGGTTACCAATGGGGCATTCAGCTTTCT", 1.86],
  ["TAGCCTAGGTCATTAAGGGGCCAGTATAGAAAGC", 2.52],
  ["TCTATTAGTTGAAAGGCAACCGACGAGTCCGTTT", 0.759]
]}

###

# Test system: LXRa homodimer (NR concentration 270 nM)
# MEASUREMENT_DESCRIPTION: PBM binding z-score (relative to random genomic background probes); higher = stronger binding; sequences stand for … in GC…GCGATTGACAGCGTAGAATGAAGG
MEASUREMENT_TYPE: PBM binding z-score

{"columns": ["MACROMOLECULE_SEQUENCE", "TARGET_OF_ASSAY", "MEASUREMENT_TYPE", "VALUE_MEASURED"],
 "data": [
  ["CCGAATAGGTTATGGGGCATTCAGGCAACGGTGA", "LXRa homodimer (NR concentration 270 nM)", "PBM binding z-score", -0.0267],
  ["CGCACTAGGTCAAGGACAGTGAATCTCCGCACGC", "LXRa homodimer (NR concentration 270 nM)", "PBM binding z-score", 0.266],
  ["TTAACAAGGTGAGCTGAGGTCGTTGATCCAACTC", "LXRa homodimer (NR concentration 270 nM)", "PBM binding z-score", -0.57],
  ["CGAATTAGGTCATCCAGGACAGTGAATACATTGA", "LXRa homodimer (NR concentration 270 nM)", "PBM binding z-score", 0.829],
  ["ACTAGCAGGCCAATGGTCACTCAAGATTAGTCCG", "LXRa homodimer (NR concentration 270 nM)", "PBM binding z-score", -0.46],
  ["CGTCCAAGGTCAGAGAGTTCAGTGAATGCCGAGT", "LXRa homodimer (NR concentration 270 nM)", "PBM binding z-score", 3.36],
  ["ACTGGGAGGACAAAGGTCAGAGCTACGCCAGTGA", "LXRa homodimer (NR concentration 270 nM)", "PBM binding z-score", 2.01],
  ["ACTATTAGTTGAGACGAGGGCAACCGTTAGGTTG", "LXRa homodimer (NR concentration 270 nM)", "PBM binding z-score", 0.0603],
  ["CCTAGTTGGTCAACGTCACACACGCTATAGGTAC", "LXRa homodimer (NR concentration 270 nM)", "PBM binding z-score", 0.431],
  ["TCTTGTACATCAACAGGAGGTTAAGAAAGATCGA", "LXRa homodimer (NR concentration 270 nM)", "PBM binding z-score", 0.452],
  ["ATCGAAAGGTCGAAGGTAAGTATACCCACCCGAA", "LXRa homodimer (NR concentration 270 nM)", "PBM binding z-score", 0.165],
  ["TCTAGCAGGCCAGAGGGTCACTTAAGAGGTACGG", "LXRa homodimer (NR concentration 270 nM)", "PBM binding z-score", -0.547],
  ["GCTAGTTAGTCAGTAAAAGGTCACACACCGGTCG", "LXRa homodimer (NR concentration 270 nM)", "PBM binding z-score", 4.46],
  ["CGAACGAGGGCATGAGTTGATAGAAAATGCCGAT", "LXRa homodimer (NR concentration 270 nM)", "PBM binding z-score", -0.393],
  ["CCTAGCAGGCCAGTCTGGGTCACTCAAGGCTTGA", "LXRa homodimer (NR concentration 270 nM)", "PBM binding z-score", -0.81],
  ["CCTAGCAGGCCAGGGTCACTCAGGCATTTCGCTT", "LXRa homodimer (NR concentration 270 nM)", "PBM binding z-score", -0.738],
  ["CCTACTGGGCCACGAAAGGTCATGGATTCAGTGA", "LXRa homodimer (NR concentration 270 nM)", "PBM binding z-score", 3.79],
  ["CCTAGTGGGTCAAGGTCACACACGCTATAGGTAC", "LXRa homodimer (NR concentration 270 nM)", "PBM binding z-score", 1.16],
  ["TCGAGTAGGTTACCTATGGGGCATTCAGCTTTCT", "LXRa homodimer (NR concentration 270 nM)", "PBM binding z-score", -0.775],
  ["GCATATAGATAATACAAGGTGAAAGTCCGATTGT", "LXRa homodimer (NR concentration 270 nM)", "PBM binding z-score", 0.245],
  ["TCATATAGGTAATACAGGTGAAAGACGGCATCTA", "LXRa homodimer (NR concentration 270 nM)", "PBM binding z-score", 0.842],
  ["CAAACTAGGTCAAAGTCAAAGTCGGTTTGTGCCA", "LXRa homodimer (NR concentration 270 nM)", "PBM binding z-score", 0.899],
  ["CCTGCTAGGTCAATGGTAAGCTAAAGCAGCTCGC", "LXRa homodimer (NR concentration 270 nM)", "PBM binding z-score", -0.107],
  ["CAAATTAGGTCAAAGGTCAAAGTCGAGCCAACCA", "LXRa homodimer (NR concentration 270 nM)", "PBM binding z-score", 6.11],
  ["TCGCCTAGGTCATTCAGGGGCCAGTATAGAAAGC", "LXRa homodimer (NR concentration 270 nM)", "PBM binding z-score", 0.443],
  ["AGTCAAAGTTCATCTAGGTAACGTGAGATATGCT", "LXRa homodimer (NR concentration 270 nM)", "PBM binding z-score", 4.89],
  ["ATCTGTAGGTAAAGATAGTTCAGTGAATGCAAAT", "LXRa homodimer (NR concentration 270 nM)", "PBM binding z-score", 0.422],
  ["CGAAAGAGGGCATGAGTTGATAGCAAATGCCGAT", "LXRa homodimer (NR concentration 270 nM)", "PBM binding z-score", -0.431],
  ["ATCGCTAGGTAAGACTCAGTTCAGTGAAGAACGC", "LXRa homodimer (NR concentration 270 nM)", "PBM binding z-score", -0.587],
  ["GCATATAGGTAATACAAGTTGAAAGTCCGATTGT", "LXRa homodimer (NR concentration 270 nM)", "PBM binding z-score", -0.112],
  ["TCCGCTAGGTCAACGATGGTCAGCTAATCTGCTA", "LXRa homodimer (NR concentration 270 nM)", "PBM binding z-score", 0.0246],
  ["CCTGCTTGGTCATGGTCAGCTAATCTACAGTATG", "LXRa homodimer (NR concentration 270 nM)", "PBM binding z-score", -0.539],
  ["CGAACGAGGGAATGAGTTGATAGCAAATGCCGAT", "LXRa homodimer (NR concentration 270 nM)", "PBM binding z-score", -0.474],
  ["GCAGACAGTTGAAACGCAGGTAACTCAGGGTGGC", "LXRa homodimer (NR concentration 270 nM)", "PBM binding z-score", -0.506],
  ["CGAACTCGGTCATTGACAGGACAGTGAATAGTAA", "LXRa homodimer (NR concentration 270 nM)", "PBM binding z-score", 0.283],
  ["AATACAGTGTCACTAGGCCAGAGTAGGTACGAAT", "LXRa homodimer (NR concentration 270 nM)", "PBM binding z-score", -0.316],
  ["GGAACGTGGGCAAGTTGATAGCAGAGTTTGATGG", "LXRa homodimer (NR concentration 270 nM)", "PBM binding z-score", -0.666],
  ["CGTCCAAGGTCATAGGAGGTCAGTGAAGACAGAT", "LXRa homodimer (NR concentration 270 nM)", "PBM binding z-score", 4.4],
  ["TCTAGCAGGCCAGAGGGGCACTCAAGAGGTACGG", "LXRa homodimer (NR concentration 270 nM)", "PBM binding z-score", -0.689],
  ["TCATATAGGTAAACAGGTGAAAATCCGTAAGTTA", "LXRa homodimer (NR concentration 270 nM)", "PBM binding z-score", 0.438],
  ["AGTCAAAGTTCAGGACGAGCTAACGTAAAGCACG", "LXRa homodimer (NR concentration 270 nM)", "PBM binding z-score", 0.971],
  ["GCGACTGGGGCAAAGCAGGTTAACATAAGGTTGG", "LXRa homodimer (NR concentration 270 nM)", "PBM binding z-score", -0.346],
  ["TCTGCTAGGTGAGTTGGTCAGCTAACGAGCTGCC", "LXRa homodimer (NR concentration 270 nM)", "PBM binding z-score", -0.902],
  ["ACCGAAAGGTCGAGGTGAGTATAGAGAAAGGGAA", "LXRa homodimer (NR concentration 270 nM)", "PBM binding z-score", -0.000757],
  ["GATACAGGGTCAGCTAGAGGCCAGAGTCTGGAAA", "LXRa homodimer (NR concentration 270 nM)", "PBM binding z-score", -0.316],
  ["CAAACTAGGGCAAGAGGTCAAAGTCCGCTTCCCG", "LXRa homodimer (NR concentration 270 nM)", "PBM binding z-score", 4.65],
  ["GCTATTTGGTCAGTAAAAGGTCACACACCGGTCG", "LXRa homodimer (NR concentration 270 nM)", "PBM binding z-score", 5.27],
  ["TGTCCAAGTTCAAAGGTAACGTAAGTATCCACAC", "LXRa homodimer (NR concentration 270 nM)", "PBM binding z-score", 1.09],
  ["AGATTGAGGTTATACGTAGATCAGGGAAGAAAGT", "LXRa homodimer (NR concentration 270 nM)", "PBM binding z-score", 0.26],
  ["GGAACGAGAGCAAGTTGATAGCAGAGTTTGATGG", "LXRa homodimer (NR concentration 270 nM)", "PBM binding z-score", -0.719],
  ["GGAACAAGGGCATTCGAGTTGATAGCATGGCGAT", "LXRa homodimer (NR concentration 270 nM)", "PBM binding z-score", 0.0326]
]}
